Listing: koff of selected binders
- measuredTarget: T1, human ACTH 18-39 (human)
- T1 construct: also called CLIP; CLIP (ACTH 18-39)
- T1 peptide: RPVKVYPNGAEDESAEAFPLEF
- assayDetails: SPR ProteOn, antibody immobilised
Entry rule: numbers only, all in s⁻¹.

Answered cases to consult:
# binder, obsValue
measured = [
    ("Ab3 (antibody, human IgG1, kappa, N297A, V domains shown, rabbit/human chimeric antibody, made in HEK-293) VH: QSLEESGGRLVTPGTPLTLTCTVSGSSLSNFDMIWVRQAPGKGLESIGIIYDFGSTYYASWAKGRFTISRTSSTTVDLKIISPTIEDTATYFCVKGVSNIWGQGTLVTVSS VL: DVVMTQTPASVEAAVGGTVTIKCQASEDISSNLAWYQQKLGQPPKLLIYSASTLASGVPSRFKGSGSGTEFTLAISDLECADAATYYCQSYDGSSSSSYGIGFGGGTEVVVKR", 0.0085),
    ("Ab4 (antibody, human IgG1, kappa, N297A, V domains shown, rabbit/human chimeric antibody, made in HEK-293) VH: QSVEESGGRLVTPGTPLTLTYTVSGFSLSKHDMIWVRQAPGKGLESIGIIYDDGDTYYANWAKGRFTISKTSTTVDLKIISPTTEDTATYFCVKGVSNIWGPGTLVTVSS VL: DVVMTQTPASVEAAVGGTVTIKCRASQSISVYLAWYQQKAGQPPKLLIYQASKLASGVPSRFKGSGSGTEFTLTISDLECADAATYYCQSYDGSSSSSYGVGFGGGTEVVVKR", 0.19),
]

// query Recorded koff of Ab1 (antibody, human IgG1, kappa, N297A, V domains shown, rabbit/human chimeric antibody, made in HEK-293) VH: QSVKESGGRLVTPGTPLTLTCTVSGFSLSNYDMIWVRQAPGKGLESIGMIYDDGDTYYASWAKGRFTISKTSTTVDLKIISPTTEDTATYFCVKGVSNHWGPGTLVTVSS VL: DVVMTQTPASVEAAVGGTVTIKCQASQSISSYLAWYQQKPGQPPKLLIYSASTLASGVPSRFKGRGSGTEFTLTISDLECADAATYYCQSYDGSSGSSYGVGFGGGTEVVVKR , please.
// result 0.092
